method-summary: Rat oral bioavailability
Format: in vivo
run-parameters: Sprague-Dawley, plasma, fasted male SD rats, IV 0.25 mg/kg, PO 1 mg/kg, based on AUC0-24hr, mean s.d., n=3
Experimental: Methods for accessing bioavailability are well appreciated in the art. One such reference is Medicinal Research Reviews Vol 21 No. 5 382-396 (2001). Bioavailability of compounds may be estimated essentially as follows. Cohorts of three or four 250-450 gram male Sprague-Dawley rats or approximately 10 kg Beagle dogs (female or male) are used. […] Compound plasma concentrations are measured by LC/MS/MS assays. Data are then analyzed using standard non-compartmental pharmacokinetic analysis. […]
reported-endpoint: bioavailability (%)
Express it in %; write the number only.

Input line: Complete the entry with bioavailability for CC(C)(N[C@@H]1C[C@H](c2cccc(OC(F)(F)F)c2)N(c2ccc(C(F)(F)F)cc2)C1=O)c1ccnc(C(F)(F)F)n1.Cc1ccc(S(=O)(=O)O)cc1
Output line: 51
